Test system: ACHN renal
protocol: NCI-60 one-dose screen, 48 h (100 = growth as untreated, 0 = no growth, -100 = all killed)
protocol_conditions: 10 µM unless noted
Compounds without any hit were thinned out: in the full panel of roughly 83,000, 20% have a hit.
The label condition met is reserved for growth strictly under 80%; condition not met covers values equal to or above it.

OC1CCN(CCCOc2c3ccc(Cl)cc3nc3c2oc2ccccc23)CC1 ... condition met

QUERY: Quick check: growth of N#Cc1c(-c2ccc(F)cc2)nc2c(C#N)c(Nc3ccccc3)nn2c1N under 80%?
RESULT: condition not met

QUERY: Quick check: growth of N#Cc1nc(-c2ccccc2)oc1S(=O)(=O)N1CCN(CCc2ccccn2)CC1 under 80%?
RESULT: condition met

QUERY: Quick check: growth of CN1CCc2c(sc3ncnc(N/N=C/c4ccc(Cl)c(Cl)c4)c23)C1 under 80%?
RESULT: condition met

QUERY: Quick check: growth of Nc1c(C(=O)Nc2ccc(Cl)cc2)sc2nc(-c3cnccn3)cc(-c3cccs3)c12 under 80%?
RESULT: condition met

QUERY: Quick check: growth of Clc1ccc2oc3c(OCCCn4ccnc4)c4ccccc4nc3c2c1 under 80%?
RESULT: condition met

QUERY: Quick check: growth of Fc1ccc(-c2cc3nc(C(Cl)Cl)nc(-c4ccccc4)n3n2)cc1 under 80%?
RESULT: condition met

QUERY: Quick check: growth of [Cl][Ru].c1ccc(-c2cc(-c3ccccn3)nc(-c3ccccn3)c2)cc1.c1ccc(-c2ccnc3c2ccc2c(-c4ccccc4)ccnc23)cc1 under 80%?
RESULT: condition met

QUERY: Quick check: growth of COc1cc(/C=C/C(=O)c2ccccc2)ccc1Oc1nc(NCCO)nc(N2CCOCC2)n1 under 80%?
RESULT: condition not met

QUERY: Quick check: growth of Cn1ccnc1C(=O)/C=C/c1ccc(NC(=O)Nc2ccc(Cl)cc2)cc1 under 80%?
RESULT: condition not met

QUERY: Quick check: growth of NS(=O)(=O)c1ccc(Nc2nc(Nc3ccccc3)nc(-n3nc(-c4ccccc4)cc3-c3ccccc3)n2)cc1 under 80%?
RESULT: condition met

QUERY: Quick check: growth of O=C(Oc1ccc2ccc(=O)oc2c1)c1ccc(Cl)cc1 under 80%?
RESULT: condition not met

QUERY: Quick check: growth of Clc1ccc2oc3c(NCCCN4CCOCC4)c4ccccc4nc3c2c1 under 80%?
RESULT: condition met

QUERY: Quick check: growth of Cc1nc(-c2cc3ccccc3oc2=O)ccc1C(=O)/C=C/c1ccc(N2CCOCC2)cc1 under 80%?
RESULT: condition met

QUERY: Quick check: growth of CCN1CCN(S(=O)(=O)c2oc(-c3ccc(Cl)cc3)nc2C#N)CC1 under 80%?
RESULT: condition met

QUERY: Quick check: growth of Cc1nc(-c2cc3ccccc3oc2=O)ccc1C(=O)/C=C/c1ccccn1 under 80%?
RESULT: condition met

QUERY: Quick check: growth of CC(=O)c1ccc(Nc2nc(SC(C)C)nc(-c3ccccc3)c2C#N)cc1 under 80%?
RESULT: condition not met

QUERY: Quick check: growth of COc1cc(OC)c(C2C(Cl)C(=O)N2Nc2ncnc3ccccc23)cc1OC (stereo not given) under 80%?
RESULT: condition not met

QUERY: Quick check: growth of CS(=O)(=O)c1ccc(-n2cc(/C=C/C(=O)c3ccc(NC(=O)CO[N+](=O)[O-])cc3)c(-c3ccc(Cl)cc3)n2)cc1 under 80%?
RESULT: condition not met
